Data origin: ChEMBL document CHEMBL3351757

Target protein (sequence): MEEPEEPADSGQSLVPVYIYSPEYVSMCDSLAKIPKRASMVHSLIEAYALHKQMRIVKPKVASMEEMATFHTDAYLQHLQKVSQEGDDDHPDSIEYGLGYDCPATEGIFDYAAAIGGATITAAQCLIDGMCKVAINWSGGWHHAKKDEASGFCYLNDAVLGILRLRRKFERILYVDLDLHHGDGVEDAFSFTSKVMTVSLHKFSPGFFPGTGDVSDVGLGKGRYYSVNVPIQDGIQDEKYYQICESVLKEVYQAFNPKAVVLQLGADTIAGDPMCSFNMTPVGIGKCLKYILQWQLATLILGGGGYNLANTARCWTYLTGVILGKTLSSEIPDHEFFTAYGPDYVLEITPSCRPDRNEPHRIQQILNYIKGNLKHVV
Each entry belongs to exactly one class, chosen by where its IC50 falls: 1 = under 30 nM, 2 = from 30 nM up to 60 nM, 3 = 60 nM and over

| structure notation | group |
| --- | --- |
| O=C(CCCCCCNC(=O)c1ccc2[nH]c(=O)ccc2c1)NO | 3 |
| CC1(C)CC(=O)Nc2ccc(C(=O)NC[C@H]3CC[C@H](/C=C/C(=O)NO)CC3)cc21 | 1 |
| CC1(C)CC(=O)Nc2ccc(C(=O)NC[C@H]3CC[C@H](CCC(=O)NO)CC3)cc21 | 1 |
| CC1(C)CC(=O)Nc2ccc(C(=O)NCCCCCCC(=O)NO)cc21 | 2 |
| O=C(CCCCCCC(=O)Nc1ccc2[nH]c(=O)ccc2c1)NO | 2 |
| CC1(C)CC(=O)Nc2ccc(C(=O)NCc3ccc(/C=C/C(=O)NO)cc3)cc21 | 2 |

# classify by IC50 band: CC1(C)CC(=O)Nc2ccc(NC(=O)CCCCCCC(=O)NO)cc21
2

Then this compound: Cn1c(=O)ccc2cc(C(=O)NCCCCCCC(=O)NO)ccc21
3

What do you get for CC1(C)CC(=O)Nc2ccc(C(=O)NC[C@H]3CC[C@@H](CCC(=O)NO)CC3)cc21 ?
1
